As shown below, each of these binders has a reported m24 (Expression relative to IgG4) value.
# assayed system: human Mac-1 (integrin αMβ2, CD11b/CD18) (human, UniProt P11215 17-1152; P05107 23-769)
# experiment: flow cytometry, HEK293/Mac-1 cells, PBS (Mock), 10 µg/ml of this antibody; binding of reporter mAb m24 read

Consider the reported m24 (Expression relative to IgG4) for these binders:
>>> reading("anti-Mac-1 antibody clone 25A06 (antibody, human IgG4, V domains shown) VH: EVQLVESGGGLVQPGGSLRLSCAASGFTFSSYYMSWVRQAPGKGLEWVSTINYDGSEKDYADSVKGRFTISRDNSKNTLYLQMNSLRAEDTAVYYCARDRLGNYPWFDVWGQGTLVTVSS VL: DIQMTQSPSSLSASVGDRVTITCRASQSISNYLAWYQQKPGKAPKLLIYDANNLQSGVPSRFSGSGSGTDFTLTISSLQPEDFATYYCQQSYSWPLTFGQGTKVEIK")
"16.8 relative to IgG4"
>>> reading("anti-Mac-1 antibody clone 24H01 (antibody, human IgG4, V domains shown) VH: EVQLVESGGGLVQPGGSLRLSCAASGFTFNNYYMSWVRQAPGKGLEWVSIIYYDGSEADYADSVKGRFTISRDNSKNTLYLQMNSLRAEDTAVYYCARNKDIYSVYGMDYWGQGTLVTVSS VL: DIQMTQSPSSLSASVGDRVTITCRASQSISNYLAWYQQKPGKAPKLLIYATSNLQSGVPSRFSGSGSGTDFTLTISSLQPEDFATYYCQQANNTPPTFGQGTKVEIK")
"1.92 relative to IgG4"
>>> reading("anti-Mac-1 antibody clone 27A04 (antibody, human IgG4, V domains shown) VH: QVKLQQSGPELVKPGASVKISCKASGYSFTDYNMNWVKQSNGKSLEWIGVINPNYGTTSYNQKFKGKATLTVDQSSSTAYMQLNSLTSEDSAVYYCARTYDYDGDAFAYWGQGTTVTVSS VL: DIELTQSPAIMSASPGEKVTMTCSASSSVSYMHWYQQKSGTSPKRWIYDTSKLASGVPARFSGSGSGTSYSLTISSMEAEDAATYYCQQWSSNPPTFGAGTKLELK")
"0.78 relative to IgG4"
>>> reading("anti-Mac-1 antibody clone 24G05 (antibody, human IgG4, V domains shown) VH: EVQLVESGGGLVQPGGSLRLSCAASGFTFTSYWMTWVRQAPGKGLEWVSTIVGGGGEADYADSVKGRFTISRDNSKNTLYLQMNSLRAEDTAVYYCARDYVADNHGAMDYWGQGTLVTVSS VL: DIQMTQSPSSLSASVGDRVTITCRASQGLSSYLNWYQQKPGKAPKLLIYGMSTLQSGVPSRFSGSGSGTDFTLTISSLQPEDFATYYCMQYYHWPYTFGQGTKVEIK")
"25 relative to IgG4"
>>> reading("anti-Mac-1 antibody clone 27E12 (antibody, human IgG4, V domains shown) VH: QVQLQQSGTVLARPGASVKMSCKASGYTFTSYWMHWVKQRPGQGLEWIGAIYPGNSDTSYNQKFKGKAKLTAVTSASTAYMELSSLTNEDSAVYYCTRGGGSYEFAYWGQGTTVTVSS VL: DIELTQSPAIMSASPGEKVTMTCSVSSSVSYMYWYQQKPGSSPRLLIYDTSNLASGVPARFSGSGSGTSYSLTISSMEAEDAATYYCQQWSSNPFTFGSGTKLEIK")
"0.64 relative to IgG4"

Request: m24 (Expression relative to IgG4) for anti-Mac-1 antibody clone 25A04 (antibody, human IgG4, V domains shown) VH: EVQLVESGGGLVQPGGSLRLSCAASGFTFSFTAMHWVRQAPGKGLEWVSAIIYNGSEADYADSVKGRFTISRDNSKNTLYLQMNSLRAEDTAVYYCARANDYDHGCCDNYAMDYWGQGTLVTVSS VL: DIQMTQSPSSLSASVGDRVTITCRASQGIGSYLYWYQQKPGKAPKLLIYDASNLQSGVPSRFSGSGSGTDFTLTISSLQPEDFATYYCMQHGGWPLTFGQGTKVEIK ?
Result: 9.33 relative to IgG4

Request: Would you kindly share the measured m24 (Expression relative to IgG4) for anti-Mac-1 antibody clone 27A06 (antibody, human IgG4, V domains shown) VH: QVKLQQSGPELVTPGASVKISCKPSGYSFTDYNMNWVKQSNGKSLEWIGEINPNYGTTRHNQKFKGKASLTVDQSSSTAYMQLISLTSEDSAVYYCARTYDYDEDAFAYWGQGTTVTVSS VL: DIELTQSPAIMSASPGEKVTMTCSASSSVSYMHWYQQKSDTSPKRWIYDTSKLASGVPARFSGSGSGTSYSLTISSMEAEDAATYYCQQWSSNPPTFGAGTKLELK ?
Result: 0.88 relative to IgG4

Request: Request the reported m24 (Expression relative to IgG4) associated with anti-Mac-1 antibody clone 27G04 (antibody, human IgG4, V domains shown) VH: QVKLQESGPELVKPGASVKISCKASGYSFTDYNMNWVKQSNGKSLEWIGVINPNYGTTSYNQKFKGKATLTVDQSSSTAYMQLNSLTSEDSAVYYCARTFDYDDDAFAYWGQGTTVTVSS VL: DIELTQSPAIMSASPGEKVTITCSASSSVSDMHWYQQKSGTSPKRWIYDTSKLASGVPARFSGSGSGTSYSLTISNMEAEDAATYYCQQWSSNPPTFGAGTKLELK
Result: 1 relative to IgG4
